# SYSTEM NAME: CaMKIIα derived from rat (Rattus norvegicus)
# Construct: purchased Santa Cruz, Inc
# ASSAY DETAILS: Examination of CaMKII inhibitory activity (1), phosphorylation of Autocamtide-2
# Assay type: biochemical
# TEST PARAMETERS: Concentration 10 μm
Would you kindly list Inhibition rate (%) for each of these compounds?
Answers are plain numbers, in %.

Need Inhibition rate (%) for each of these compounds.
1. CNc1nc(C(C)c2ccc(-c3ccccc3)c(F)c2)cs1 (centres unmarked)
2. C[C@@H](c1ccc(-c2ccccc2)c(F)c1)c1cc(/N=C(/N)N2CCOCC2)on1
3. CC(c1ccc(-c2ccccc2)c(F)c1)c1cc(/N=C(/N)N(C)C)on1.Cl (centres unmarked)
4. COc1ccc(S(=O)(=O)N(CCO)c2ccccc2CN(C)C/C=C/c2ccc(Cl)cc2)cc1 [KN-93, reference compound]
5. CCN/C(N)=N/c1cc(C(C)c2ccc(-c3ccccc3)c(F)c2)no1.Cl (centres unmarked)

1. 92
2. 85
3. 71
4. 77
5. 68

###

# SYSTEM NAME: CaMKIIα derived from rat (Rattus norvegicus)
# Construct: purchased Santa Cruz, Inc
# ASSAY DETAILS: Examination of CaMKII inhibitory activity (1), phosphorylation of Autocamtide-2
# Assay type: biochemical
# TEST PARAMETERS: Concentration 0.1 μm
# if value of Inhibition rate (%) reaches 40%, tag Y; if it stays below, tag N

CC(c1ccc(-c2ccccc2)c(F)c1)c1cc(/N=C(/N)N(C)C)on1.Cl (centres unmarked) [Compound (Ib)] | N

Has CCN/C(N)=N/c1cc(C(C)c2ccc(-c3ccccc3)c(F)c2)no1.Cl (centres unmarked) [Compound (Ic)] a recorded Inhibition rate (%) greater than or equal to 40%?
N

Cool, now COc1ccc(S(=O)(=O)N(CCO)c2ccccc2CN(C)C/C=C/c2ccc(Cl)cc2)cc1 [KN-93, reference compound]
N

Cool, now CNc1nc(C(C)c2ccc(-c3ccccc3)c(F)c2)cs1 (centres unmarked) [Compound (II)]
Y

###

Would you kindly list Inhibition rate (%) for each of these molecules?
# SYSTEM NAME: CaMKIIα derived from rat (Rattus norvegicus, UniProt P11275)
# Construct: purchased Santa Cruz, Inc
# Sequence (P11275 whole entry): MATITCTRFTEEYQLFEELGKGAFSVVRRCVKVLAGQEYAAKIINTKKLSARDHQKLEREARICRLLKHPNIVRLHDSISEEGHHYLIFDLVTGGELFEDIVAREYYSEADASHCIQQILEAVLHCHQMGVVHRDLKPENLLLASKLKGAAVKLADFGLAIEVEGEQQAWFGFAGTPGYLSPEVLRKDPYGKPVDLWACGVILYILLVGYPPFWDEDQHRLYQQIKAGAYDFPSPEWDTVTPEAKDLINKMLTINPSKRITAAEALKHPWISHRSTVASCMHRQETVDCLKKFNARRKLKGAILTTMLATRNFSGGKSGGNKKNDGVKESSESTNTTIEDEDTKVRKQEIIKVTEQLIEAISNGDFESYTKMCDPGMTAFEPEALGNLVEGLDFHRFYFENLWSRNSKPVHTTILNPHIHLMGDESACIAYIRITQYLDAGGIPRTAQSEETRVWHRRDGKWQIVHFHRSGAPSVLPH
# ASSAY DETAILS: Examination of CaMKII inhibitory activity (1), phosphorylation of Autocamtide-2
# Format: biochemical
# TEST PARAMETERS: Concentration 1 μm
# Protocol: Test substances were dissolved in DMSO and diluted to various concentrations with a buffer solution (50 mM Tris-HCl: pH 7.5, 10 mM MgCl2, 1 mM Dithiothreitol (DTT)) (all of them are available from Nacalai Tesque, Inc.) for CaMKII reaction. […] Phosphorus taken in by Autocamtide-2 was reacted with an anti-phosphorylated serine/threonine antibody (Santa Cruz, Inc.) and quantified by ECL system (Amersham, Inc.) and NIH Image (downloadable from http://rsb.info.nih.gov/nih-image/).
Output should be the measured figure followed by the unit it is expressed in.

Answered examples (4):
CC(c1ccc(-c2ccccc2)c(F)c1)c1cc(/N=C(/N)N(C)C)on1.Cl (centres unmarked) | 42%
COc1ccc(S(=O)(=O)N(CCO)c2ccccc2CN(C)C/C=C/c2ccc(Cl)cc2)cc1 [KN-93, reference compound] | 58%
C[C@@H](c1ccc(-c2ccccc2)c(F)c1)c1cc(/N=C(/N)N2CCOCC2)on1 | 47%
CNc1nc(C(C)c2ccc(-c3ccccc3)c(F)c2)cs1 (centres unmarked) | 62%

Please find the next molecule below.
Which Inhibition rate (%) is listed for CCN/C(N)=N/c1cc(C(C)c2ccc(-c3ccccc3)c(F)c2)no1.Cl (centres unmarked) ?
36%
